# ASSAYED SYSTEM: Growth hormone secretagogue receptor type 1 (Homo sapiens, UniProt Q92847)
# Sequence (Q92847 whole entry): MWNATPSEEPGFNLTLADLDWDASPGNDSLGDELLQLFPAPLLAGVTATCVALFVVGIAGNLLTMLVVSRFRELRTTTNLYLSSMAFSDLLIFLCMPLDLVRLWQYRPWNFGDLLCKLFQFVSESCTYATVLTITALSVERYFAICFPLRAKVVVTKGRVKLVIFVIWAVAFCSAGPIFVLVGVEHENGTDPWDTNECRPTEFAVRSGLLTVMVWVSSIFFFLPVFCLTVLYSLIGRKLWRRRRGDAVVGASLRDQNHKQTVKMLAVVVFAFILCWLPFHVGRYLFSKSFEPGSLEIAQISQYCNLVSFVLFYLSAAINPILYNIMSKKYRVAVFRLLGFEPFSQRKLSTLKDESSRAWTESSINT
# ASSAY PROCEDURE: Agonist activity at human GHS-R1
# Assay type: functional
# CONDITION: read-out: EC50
pEC50: −log10 of the molar value.
Measured pEC50, listed per entry for reference.
PROPERTY MEASURED: pEC50

CHEMICAL STRUCTURE: CCN(CC)CCN1C(=O)[C@@](O)(c2ccc3ccccc3c2)c2c(Br)cccc21
READOUT VALUE: 7.11
--
CHEMICAL STRUCTURE: NC(=O)[C@@H](NC(=O)[C@@H](Cc1ccc2ccccc2c1)NC(=O)[C@@H](Cc1ccc2ccccc2c1)NC(=O)C1CCNCC1)c1ccccc1
READOUT VALUE: 9.55
--
CHEMICAL STRUCTURE: O=C(N[C@H](Cc1ccc2ccccc2c1)C(=O)N[C@@H](CO)Cc1c[nH]c2ccccc12)C1CCNCC1
READOUT VALUE: 8.00
--
CHEMICAL STRUCTURE: CC(C)(N)C(=O)N[C@H](CCCc1ccccc1)C(=O)N1CCN(c2ccccc2NS(=O)(=O)CC(=O)O)CC1
READOUT VALUE: 8.64
--
CHEMICAL STRUCTURE: NCCCCNC(=O)[C@@H](Cc1ccc2ccccc2c1)NC(=O)[C@@H](Cc1ccc2ccccc2c1)NC(=O)C1CCNCC1
READOUT VALUE: 7.77
--
CHEMICAL STRUCTURE: CC(C)S(=O)(=O)Nc1ccccc1N1CCN(C(=O)[C@@H](CCCc2ccccc2)NC(=O)C(C)(C)N)CC1
READOUT VALUE: 8.55
--
CHEMICAL STRUCTURE: COC(=O)CS(=O)(=O)Nc1ccccc1N1CCN(C(=O)[C@@H](CCCc2ccccc2)NC(=O)C(C)(C)N)CC1
READOUT VALUE: 8.35
--
CHEMICAL STRUCTURE: CCN(CC)CCN1C(=O)[C@@](O)(c2ccc3ccccc3c2)c2c1cc(C#CCCC(=O)N(C)C)cc2C(F)(F)F
READOUT VALUE: 7.52
--
CHEMICAL STRUCTURE: CCN(CC)CCN1C(=O)[C@@](O)(c2ccc3ccccc3c2)c2c1cc(C(N)=O)cc2C(F)(F)F
READOUT VALUE: 7.74
--
CHEMICAL STRUCTURE: CNC(C)(C)C/C=C/C(=O)N(C)[C@H](Cc1ccc2ccccc2c1)C(=O)N(C)CCc1ccccc1
READOUT VALUE: 8.52
--
CHEMICAL STRUCTURE: CC(C)(N)C(=O)N[C@H](CCCc1ccccc1)C(=O)N1CCN(c2ccccc2NS(C)(=O)=O)CC1
READOUT VALUE: 8.20
